Where do the numbers come from? From the nanobody polyreactivity screen of Harvey et al. (2022).

# assay-remarks: yeast display, Sf9 membrane polyspecificity reagent, FACS + sequencing; frameworks hold sequencing errors
quantity-name: polyreactivity (PSR sort gate)

{"ordered-residues": "QVQLVESGGGLVQAGGSLRLSCAASGRTFARNAMGWYRQAPGKDRELVAAISSSGGSTYYADSVKGRFTISRDNAKNTVYLQMNSLKPEDTAVYYCAARSRHAYGYWGQGTQVTVSS", "quantity-name": "polyreactivity (PSR sort gate)", "data-value": "high polyreactivity"}
{"ordered-residues": "QVQLVESGGGLVQAGGSLRLSCAASGFTFKRYAMGWYRQAPGKERELVAAITGSGGSTYYADSVKGRFTISRDNAKNTVYLQMNSLKPEDTAVYYCAKKRIYWSGRPTIGTYIMGYWGQGTQVTVSS", "quantity-name": "polyreactivity (PSR sort gate)", "data-value": "high polyreactivity"}
{"ordered-residues": "QVQLVESGGGLVQAGGSLRLSCAASGRIVKYAMGWYRQAPGKERELVAAISSSGGTTYYADSVKGRFTISRDNAKNTVYLQMISLKPEDTAVYYCAAPGTYTSRGSDYWGQGTQVTVSS", "quantity-name": "polyreactivity (PSR sort gate)", "data-value": "high polyreactivity"}
{"ordered-residues": "QVQLVESGGGLVQAGGSLRLSCAASGISFNGNAMGWYRQAPGKERELVAAISGSGGSTYYADSVKGRFTISRDNAKNSVYLQMNSLKQEDTAVYYCNALYGRRVYVGYDYWGQGSQVTVSS", "quantity-name": "polyreactivity (PSR sort gate)", "data-value": "high polyreactivity"}

###

# assay-remarks: yeast display, Sf9 membrane polyspecificity reagent, FACS + sequencing; frameworks hold sequencing errors

{"ordered-residues": "QVQLVESGGGLVQAGGSLRLSCAASGGTFRPYAIGWYRQAPGKERELVATIRSSGGRTYYADSVKGRFTISRDNAKNTVYLQMNSLKPEDTAVYYCAKRAQTYYGYVYWGQGTQVTVSS", "polyreactivity (PSR sort gate)": "high polyreactivity"}
{"ordered-residues": "QVQLVESGGGLVQAGGSLRLSCAASGSTFWGYTMGWYRQAPGKERELVAAITSGGSTNYADSVKGRFTISRDNAKNTVYLQMNSLKPEDTAVYYCNAVYPGRRRYRKWYIYDYWGQGTQVTVSS", "polyreactivity (PSR sort gate)": "high polyreactivity"}
{"ordered-residues": "QVQLVESGGGLVQAGGRLRLSCAASGRTFGYNAMGWYRQAPGKERELVAAITYSGGRTYYADSVKGRFTISRDNAKNTVYLQMNSLKPEDTAVYYCAALTRRVKKYDYWGQGTQVTVSS", "polyreactivity (PSR sort gate)": "high polyreactivity"}
{"ordered-residues": "QVQLVESGGGLVQAGGRLRLSCAASGFTFAYYAMGGNRQSPGKERELVAAISSGGGSTYYADSEKGRFTISRDNAKNTVYLQMNSQKPEDTAVYYCAAESCSPQAWFDYWGQGTQVTVSS", "polyreactivity (PSR sort gate)": "high polyreactivity"}
{"ordered-residues": "QVQLVESGGGLVQAGGSLRLSCAASGIIFSYNVMGWYRQAPGTERELVAGISRSGGSTYYADSVKGRFTISRDNAKNTVYLQMNSLKPEDTAVYYCNRVSYGPYYSYWSDFGYWGQGTQVTVSS", "polyreactivity (PSR sort gate)": "high polyreactivity"}
{"ordered-residues": "QVQLVESGGGLVQAGGSLRLTCAASGIIFKLYAMGWYRQAPGKEREFVATITKTGGRTYYADSVKGRFTISRDNAKNTVYLQMNSLKPEDTAVDYCAARRVNGKMYYWGQGTQVTVSS", "polyreactivity (PSR sort gate)": "high polyreactivity"}
{"ordered-residues": "QVQLVESGGGLVQAGGSLRLSCAASGRSFGHYAMGWYRQAPGKERELVAAITTGGNTYYADSVKGRFTISRDNAKNTVYLQMNSLKPEDTAVYYCAKRGYPYKYKYWQVYAAYDYWGQGTQVTVSS", "polyreactivity (PSR sort gate)": "low polyreactivity"}
{"ordered-residues": "QVQIVESRGCLVQAGGSLRLICAASGSIFLANAMGWYRQAPRKEREFVPAITSSGGSTYYADSVKGRFTISRDNAKNSVYLQMNSLKPEDTAVYYCNVRPRYRWRSTPYGYWGQGTQVTVSS", "polyreactivity (PSR sort gate)": "high polyreactivity"}
{"ordered-residues": "QVQLVESGGGLVQAGGSLRLSCAASGMGWYRQAPGKERELVARISGGVSTNYADSVKGRFTISRDNAKNTVYLQMNSLKPEDTAVYYCAADPLDTYDYWGQGTQVTVSS", "polyreactivity (PSR sort gate)": "low polyreactivity"}
{"ordered-residues": "QVQLVDSVGGLVKAGCSLRLSCAASGSTLPVNAKGCYRQAPGKERELVAAINRDGSTIYADSVKRPFTISRDIAKNTVYLKMNRLKPEDTAVYYCAADGFGYPGKRYDFWGQGTQVTVSS", "polyreactivity (PSR sort gate)": "low polyreactivity"}
{"ordered-residues": "QVQLVESGGGLVQAGGSLRLSCAASGSTFTNYAMGWYRQAPGKERELVAAISSSGGRTYYADSVKGRFTISRDNAKNTVYLQMNSLKPEDTAVYYCARVVRPSVGDYWGQGTQVTVSS", "polyreactivity (PSR sort gate)": "high polyreactivity"}
